assay.details: Horizon-LBA
Format: in vitro ADME
condition: not told
Non-standard residues stand in square brackets, D forms with d. Residues, ends and D or L forms follow the SMILES beside them.
measured.parameter: Papp

[
  {
    "molecule": "COc1ccc(C[C@@H]2NC(=O)[C@@H](CC(C)C)NC(=O)[C@H](C(C)C)NC(=O)[C@H](CC(C)C)NC(=O)[C@@H](CC(C)C)NC(=O)[C@H]3CCCN3C2=O)cc1 [Peptide 1] (cyclo(LV[dL]Y(Me)[dP][dL]))",
    "measured.parameter": "Papp",
    "value.measured": "300 ×10⁻⁶ cm/s"
  }
]
